// provenance: the supplement of paper PMC9112550

- System: Escherichia coli TOP10;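 also: peptides expressed intracellularly from a pBAD plasmid library in pooled LB shake-flask culture, induced with 0.3% L-arabinose, DNA abundance read by NGS, three biological replicates, DESeq2 with apeglm shrinkage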
- test-summary: shrunken log2 fold change of peptide-encoding DNA abundance (4.5 h post-induction vs induction); higher = less antimicrobial activity (less host growth inhibition)
- condition-info: time post-induction: 4.5 h; library: site-saturation at positions 5, 18, 19, 20
Please use the following shrunken log2 fold change ranges when assigning a class: low range: < -0.1; mid range: ≥ -0.1 and < 0.008; high range: ≥ 0.008

See these solved cases before continuing.
RRIRMRPPRLPRPRPRPQMDPRP ... high range
RRIRWRPPRLPRPRPRPEDCPRP ... mid range
RRIRPRPPRLPRPRPRPKMPPRP ... mid range

Exercise: Field: class (shrunken log2 fold change) — entry: "RRIRDRPPRLPRPRPRPLCYPRP"
Key: high range

Exercise: Field: class (shrunken log2 fold change) — entry: "RRIRKRPPRLPRPRPRPETGPRP"
Key: high range

Exercise: Field: class (shrunken log2 fold change) — entry: "RRIRARPPRLPRPRPRPFEWPRP"
Key: mid range

Exercise: Field: class (shrunken log2 fold change) — entry: "RRIRRRPPRLPRPRPRPVHDPRP"
Key: low range

Exercise: Field: class (shrunken log2 fold change) — entry: "RRIRCRPPRLPRPRPRPIKMPRP"
Key: low range

Exercise: Field: class (shrunken log2 fold change) — entry: "RRIRCRPPRLPRPRPRPRIYPRP"
Key: mid range
